Below: a set of entries, each annotated with reported melting point.

>  <Compound>
CCOc1cc([C@@H](CCO)N2Cc3cccc(NC(=O)C4CC4)c3C2=O)ccc1OC

>  <melting point>
103 to 105 °C

$$$$
>  <Compound>
CCOc1cc([C@@H](CC(C)N(O)C=O)N2Cc3cccc(NC(=O)C4CC4)c3C2=O)ccc1OC (stereo partly drawn)

>  <melting point>
142 to 144 °C

$$$$
>  <Compound>
CCOc1cc([C@@H](CCN(O)C=O)N2C(=O)c3cccc(NC(C)=O)c3C2=O)ccc1OC

>  <melting point>
96 to 98 °C

$$$$
>  <Compound>
CCOc1cc([C@@H](CCN(O)C=O)N2Cc3cccc(NC(C)=O)c3C2=O)ccc1OC

>  <melting point>
79 to 81 °C

$$$$
>  <Compound>
CCOc1cc([C@@H](CCN(C=O)OC(C)=O)N2Cc3cccc(NC(=O)C(C)C)c3C2=O)ccc1OC

>  <melting point>
72 to 74 °C

$$$$
>  <Compound>
CCOc1cc([C@@H](CCNO)N2Cc3cccc(NC(=O)C4CC4)c3C2=O)ccc1OC

>  <melting point>
136 to 138 °C

$$$$

QUERY: Which measured melting point value corresponds to CCOc1cc(C(CCN(OC(C)=O)C(C)=O)N2Cc3cccc(NC(=O)C4CC4)c3C2=O)ccc1OC (stereo not drawn) ?
RESULT: 123 to 125 °C

QUERY: Repeat for the following compound: CCOc1cc(C(CCN(OC(=O)OC(C)(C)C)C(=O)OC(C)(C)C)N2Cc3cccc(NC(=O)C4CC4)c3C2=O)ccc1OC (stereo not drawn)
RESULT: 153 to 155 °C

QUERY: Entry to check: CCOc1cc(C(CCN(OC(=O)OC(C)(C)C)C(=O)OC(C)(C)C)N2Cc3cccc(N)c3C2=O)ccc1OC (stereo not drawn)
RESULT: 85 to 87 °C

QUERY: CCOc1cc([C@@H](CCN(O)C=O)N2Cc3cccc(NC(=O)C4CC4)c3C2=O)ccc1OC , same question.
RESULT: 102 to 104 °C

QUERY: Same again, this time with CCOc1cc([C@@H](CCN(O)C(N)=O)N2Cc3cccc(NC(=O)C(C)C)c3C2=O)ccc1OC
RESULT: 137 to 139 °C

QUERY: Try the compound CCOc1cc([C@@H](CCN(O)C=O)N2Cc3cccc(NC(=O)C(C)C)c3C2=O)ccc1OC
RESULT: 81 to 83 °C

These entries and their values trace back to patent US8076369B2.
